targetOrTestSystem: Nanoluciferase-BRD9 fusion protein (3×FLAG-NLuc-BRD9) in SYO-1 cells (Homo sapiens, UniProt Q9H8M2)
Construct: expressed in transfected cells; host or cells: SYO-1
Sequence (Q9H8M2 1-597): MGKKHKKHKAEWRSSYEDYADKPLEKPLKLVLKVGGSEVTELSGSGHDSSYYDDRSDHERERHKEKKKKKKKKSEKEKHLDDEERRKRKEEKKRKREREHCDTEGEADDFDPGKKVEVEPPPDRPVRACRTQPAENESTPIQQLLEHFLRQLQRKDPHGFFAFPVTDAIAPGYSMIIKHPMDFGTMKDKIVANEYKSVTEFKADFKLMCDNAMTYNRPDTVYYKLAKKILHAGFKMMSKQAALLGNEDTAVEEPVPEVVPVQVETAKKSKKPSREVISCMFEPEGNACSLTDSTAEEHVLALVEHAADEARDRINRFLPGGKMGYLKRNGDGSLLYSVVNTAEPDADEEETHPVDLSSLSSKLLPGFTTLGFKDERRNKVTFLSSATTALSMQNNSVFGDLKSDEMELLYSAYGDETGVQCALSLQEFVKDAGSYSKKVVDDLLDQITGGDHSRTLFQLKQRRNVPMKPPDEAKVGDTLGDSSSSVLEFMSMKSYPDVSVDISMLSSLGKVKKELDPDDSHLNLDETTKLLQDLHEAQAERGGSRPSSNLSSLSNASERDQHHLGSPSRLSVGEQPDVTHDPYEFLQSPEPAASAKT
experiment: SYO1 BRD9 NanoLuc degradation assay
Assay type: cell-based
runConditions: Table 6C; SYO-1 cells expressing 3×FLAG-NLuc-BRD9, 6 hours incubation, 1 μM top dose; read-out: SYO1 BRD9-NanoLuc degradation IC50
Entries and their DC50

Solved cases (5 shown):
- compound: "COc1cc(-c2cn(C)c(=O)c3sncc23)cc(OC)c1CN1CCC2(CC1)CN(c1ccc3c(c1)C(=O)N(C1CCC(=O)NC1=O)C3)C2 (stereo not drawn)"
  DC50: "< 10 nM"
- compound: "COc1cc(-c2cn(C)c(=O)c3cc(C(=O)NC4CCN(CCN5CCN(c6ccc7c(c6)CN(C6CCC(=O)NC6=O)C7=O)CC5)CC4(F)F)sc23)cc(OC)c1CN(C)C (stereo not drawn)"
  DC50: "< 10 nM"
- compound: "COc1cc(Cl)cc(-c2cn(C)c(=O)c3cc(C(=O)NC4CCN(c5ccc6c(c5)C(=O)N(C5CCC(=O)NC5=O)C6)CC4)sc23)c1 (stereo not drawn)"
  DC50: "< 10 nM"
- compound: "COc1cc(-c2cn(C)c(=O)c3ccsc23)cc(OC)c1C1CCN(c2ccc3c(c2)C(=O)N(C2CCC(=O)NC2=O)C3)CC1 (stereo not drawn)"
  DC50: "< 10 nM"
- compound: "COc1cc(-c2cn(C)c(=O)c3ocnc23)cc(OC)c1CN1CCC2(CC1)CN(c1ccc3c(c1)C(=O)N(C1CCC(=O)NC1=O)C3)C2 (stereo not drawn)"
  DC50: "< 10 nM"

Need DC50, item COc1cc(-c2cn(C)c(=O)c3ccsc23)cc(OC)c1CN1CCC2CCN(c3ccc4c(c3)C(=O)N(C3CCC(=O)NC3=O)C4)CC2C1 (stereo not drawn)
< 10 nM

Need DC50, item Cn1cc(-c2ccc(-c3ccc4c(c3)C(=O)N(C3CCC(=O)NC3=O)C4)c(C(F)(F)F)c2)c2sccc2c1=O (stereo not drawn)
< 10 nM

All figures here come from patent US12686687B2.
